Hi there, I'd appreciate the recorded pest or weed control at 140 g/ha for every entry that follows.
Test system: Amaranthus palmeri (AMAPA)
Test: Postemergence herbicide evaluation, percent reduction in plant size vs untreated control, 21 days after treatment
Assay type: in vivo, Amaranthus palmeri (Palmer amaranth)
Conditions: post-emergence, 504 h, R-AMAPA, rate 140 g ae/ha, postemergence, percent reduction vs untreated control, 21 days after treatment, read-out: Control/Injury
Response body: numeric value in %, unit text excluded.

Item COc1c(Cl)ccc(Cl)c1C(=O)ON1C(=O)c2ccccc2C1=O [Compound A-74] has what recorded pest or weed control at 140 g/ha?
68

Item COc1c(Cl)ccc(Cl)c1C(=O)OC(=O)c1c(Cl)ccc(Cl)c1OC [Compound A-90] has what recorded pest or weed control at 140 g/ha?
32

Item CCO/C(C)=N\OC(=O)c1c(Cl)ccc(Cl)c1OC [Compound A-93] has what recorded pest or weed control at 140 g/ha?
68

Item COc1c(Cl)ccc(Cl)c1C(=O)ON(C)C(=O)Nc1ccccc1 [Compound A-75] has what recorded pest or weed control at 140 g/ha?
73

Item CCOC(=O)C(=NOC(=O)c1c(Cl)ccc(Cl)c1OC)C(=O)OCC [Compound A-87] has what recorded pest or weed control at 140 g/ha?
62

Item COc1c(Cl)ccc(Cl)c1C(=O)O/N=C/c1ccco1 [Compound A-88] has what recorded pest or weed control at 140 g/ha?
67

Item COc1c(Cl)ccc(Cl)c1C(=O)O/N=C(\N)CC/C(N)=N/OC(=O)c1c(Cl)ccc(Cl)c1OC [Compound A-140] has what recorded pest or weed control at 140 g/ha?
54

Item COc1c(Cl)ccc(Cl)c1C(=O)ON1CCCCC1 [Compound A-92] has what recorded pest or weed control at 140 g/ha?
78

Item COc1c(Cl)ccc(Cl)c1C(=O)ONC(C)=O [Compound A-68] has what recorded pest or weed control at 140 g/ha?
42

Item CC/C(C)=N/OC(=O)c1c(Cl)ccc(Cl)c1OC [Compound A-91] has what recorded pest or weed control at 140 g/ha?
72

Item COc1c(Cl)ccc(Cl)c1C(=O)Oc1cncnc1 [Compound A-66] has what recorded pest or weed control at 140 g/ha?
13

Item COc1c(Cl)ccc(Cl)c1C(=O)ONC(=O)c1cccnc1 [Compound A-94] has what recorded pest or weed control at 140 g/ha?
73

Item COc1c(Cl)ccc(Cl)c1C(=O)NS(=O)(=O)c1ccc(C)cc1 [Compound A-78] has what recorded pest or weed control at 140 g/ha?
23

Item COc1c(Cl)ccc(Cl)c1C(=O)O/N=C(\N)C(C)C [Compound A-48] has what recorded pest or weed control at 140 g/ha?
90

Item COc1c(Cl)ccc(Cl)c1C(=O)O/N=C/C(C)=O [Compound A-69] has what recorded pest or weed control at 140 g/ha?
70

Item CO/C(=N\OC(=O)c1c(Cl)ccc(Cl)c1OC)c1ccccc1 [Compound A-83] has what recorded pest or weed control at 140 g/ha?
70

Item COc1c(Cl)ccc(Cl)c1C(=O)N1CCOCC1 [Compound A-65] has what recorded pest or weed control at 140 g/ha?
33

Item COc1c(Cl)ccc(Cl)c1C(=O)O/N=C(\C)c1ccccc1 [Compound A-46] has what recorded pest or weed control at 140 g/ha?
85

Item CCN(CC)OC(=O)c1c(Cl)ccc(Cl)c1OC [Compound A-64] has what recorded pest or weed control at 140 g/ha?
3

Item COc1c(Cl)ccc(Cl)c1C(=O)OCOC(=O)c1ccccc1 [Compound A-51] has what recorded pest or weed control at 140 g/ha?
95

Item COCCONC(=O)c1c(Cl)ccc(Cl)c1OC [Compound A-95] has what recorded pest or weed control at 140 g/ha?
42

Item COc1c(Cl)ccc(Cl)c1C(=O)O/N=C/c1ccccc1 [Compound A-70] has what recorded pest or weed control at 140 g/ha?
72

Item COc1c(Cl)ccc(Cl)c1C(=O)O/N=C/c1cccnc1 [Compound A-81] has what recorded pest or weed control at 140 g/ha?
17

Item COc1c(Cl)ccc(Cl)c1C(=O)O/N=C(\C)C(C)(C)C [Compound A-82] has what recorded pest or weed control at 140 g/ha?
85

Item COc1c(Cl)ccc(Cl)c1C(=O)OCOC(=O)c1c(Cl)ccc(Cl)c1OC [Compound A-53] has what recorded pest or weed control at 140 g/ha?
70

Item COc1c(Cl)ccc(Cl)c1C(=O)O/N=C(\SC)c1ccccc1 [Compound A-85] has what recorded pest or weed control at 140 g/ha?
68

Item COc1c(Cl)ccc(Cl)c1C(=O)O/N=C(\N)c1cccnc1 [Compound A-50] has what recorded pest or weed control at 140 g/ha?
95

Item COc1c(Cl)ccc(Cl)c1C(=O)O/N=C(\N)c1ccccc1 [Compound A-49] has what recorded pest or weed control at 140 g/ha?
95

Item COc1c(Cl)ccc(Cl)c1C(=O)Nc1ncccn1 [Compound A-62] has what recorded pest or weed control at 140 g/ha?
73

Item CCCCCC(=O)NOC(=O)c1c(Cl)ccc(Cl)c1OC [Compound A-80] has what recorded pest or weed control at 140 g/ha?
20

Item COc1c(Cl)ccc(Cl)c1C(=O)O/N=C(\N)CCCCCC/C(N)=N/OC(=O)c1c(Cl)ccc(Cl)c1OC [Compound A-147] has what recorded pest or weed control at 140 g/ha?
43

Item COc1c(Cl)ccc(Cl)c1C(=O)Nc1ccncc1 [Compound A-61] has what recorded pest or weed control at 140 g/ha?
85

Item COc1c(Cl)ccc(Cl)c1C(=O)ON1C(=O)CCC1=O [Compound A-73] has what recorded pest or weed control at 140 g/ha?
70

Item COc1c(Cl)ccc(Cl)c1C(=O)OCc1ccccc1 [Compound A-44] has what recorded pest or weed control at 140 g/ha?
80

Item COc1c(Cl)ccc(Cl)c1C(=O)OCC[N+](C)(C)C [Compound A-63] has what recorded pest or weed control at 140 g/ha?
73

Item COc1c(Cl)ccc(Cl)c1C(=O)Nc1ccc(Cl)cc1 [Compound A-77] has what recorded pest or weed control at 140 g/ha?
82

Item COc1c(Cl)ccc(Cl)c1C(=O)ON(Cc1ccccc1)Cc1ccccc1 [Compound A-72] has what recorded pest or weed control at 140 g/ha?
72

Item COc1c(Cl)ccc(Cl)c1C(=O)ON(C)C(=O)c1ccccc1 [Compound A-71] has what recorded pest or weed control at 140 g/ha?
70

###

Hi there, I'd appreciate the recorded pest or weed control at 280 g/ha for every entry that follows.
System: Kochia scoparia (KCHSC)
Assay: Postemergence herbicide evaluation, percent reduction in plant size vs untreated control, 21 days after treatment
Format: in vivo
Conditions: Bassia scoparia, post-emergence, 504 h, KCHSC; rate 280 g ae/ha; postemergence, percent reduction vs untreated, 21 days after treatment; read-out: Control/Injury
Response body: numeric value in %, unit text excluded.

Item "COc1c(Cl)ccc(Cl)c1C(=O)ONC(=O)c1cccnc1" has what recorded pest or weed control at 280 g/ha?
98

Item "COc1c(Cl)ccc(Cl)c1C(=O)O/N=C(\N)c1ccccc1" has what recorded pest or weed control at 280 g/ha?
99

Item "COc1c(Cl)ccc(Cl)c1C(=O)O/N=C(\N)CCCCCC/C(N)=N/OC(=O)c1c(Cl)ccc(Cl)c1OC" has what recorded pest or weed control at 280 g/ha?
88

Item "COc1c(Cl)ccc(Cl)c1C(=O)O/N=C(\N)CCCC/C(N)=N/OC(=O)c1c(Cl)ccc(Cl)c1OC" has what recorded pest or weed control at 280 g/ha?
91

###

Tested on: Amaranthus rudis (AMATA)
Experiment: Postemergence herbicide evaluation, percent reduction in plant size vs untreated control, 21 days after treatment
Assay type: in vivo, Amaranthus rudis (tall water hemp)
Details: Amaranthus tuberculatus, post-emergence, 504 h, AMATA, rate 280 g ae/ha, postemergence; read-out: Control/Injury
Description: Plants were grown in a soil media composed of 90% by volume Promix BX (Premier Tech Horticulture, Quakertown, PA) and 10% Profile Greens Grade (Profile Products LLC, Buffalo Grove, IL). […] In conformity with the methods outlined in Example 49, the effect of representative experimental compounds on the growth of Amaranthus rudis (AMATA), common name tall water hemp, was determined at 2 different levels (respectively, 140 and 280 g acid equivalent (ae)/ha) of the experimental actives tested. […]
Lab note: cut-off is 80%. Strictly less in pest or weed control at 280 g/ha is satisfied. Exactly 80% or more is not satisfied.

Dear reviewer, please state whether "COc1c(Cl)ccc(Cl)c1C(=O)Nc1ccc(Cl)cc1" has pest or weed control at 280 g/ha strictly beneath 80%.
not satisfied

Dear reviewer, please state whether "COc1c(Cl)ccc(Cl)c1C(=O)NNc1nc(C)cs1" has pest or weed control at 280 g/ha strictly beneath 80%.
satisfied

Dear reviewer, please state whether COc1c(Cl)ccc(Cl)c1C(=O)O [Dicamba, 3,6-dichloro-2-methoxybenzoic acid, reference compound] has pest or weed control at 280 g/ha strictly beneath 80%.
not satisfied

Dear reviewer, please state whether "COc1c(Cl)ccc(Cl)c1C(=O)n1ccnc1" has pest or weed control at 280 g/ha strictly beneath 80%.
satisfied

Dear reviewer, please state whether "COC(=O)C(C(=O)OC)C(=O)c1c(Cl)ccc(Cl)c1OC" has pest or weed control at 280 g/ha strictly beneath 80%.
satisfied
